// reported CC50 at 3 days per item
Experiment: Cytotoxicity in RT-qPCR assay (Cp of housekeeping gene β-actin)
Assay type: cell-based
Conditions: African green monkey, RT-qPCR serotype 2 16681, Protocol A
Record the value in µM, omitting the unit from your answer.

compound="COc1cc(NC(C(=O)c2c[nH]c3ccc(OC(F)(F)F)cc23)c2ccc(Cl)cc2OC)cc(OCCO)c1 (single isomer, unassigned) [Compound 13A]" readout="CC50 at 3 days" unit_descriptor=µM reported_result=2.6

Just so you know, measured CC50 at 3 days for COc1cc(NC(C(=O)c2c[nH]c3cc(OC)c(OC(F)(F)F)cc23)c2ccc(Cl)cc2OC)cc(OCCO)c1 (single isomer, unassigned) [Compound 14A] came out at 3.8

Just so you know, measured CC50 at 3 days for COc1cc(NC(C(=O)c2c[nH]c3cc(F)c(C(F)(F)F)cc23)c2ccc(F)cc2OC)cc(OCCO)c1 (single isomer, unassigned) [Compound 3A] came out at 2.6

###

Test: Toxicity on the same plates (ATPlite cell viability)
Settings: African green monkey, CC50, Vero cells, same plates as DENV-2 antiviral assay
// reported CC50 per item
Record the value in µM, omitting the unit from your answer.

compound="COc1cc(NC(C(=O)c2c[nH]c3cc(OC)c(C(F)(F)F)cc23)c2ccc(F)cc2OC)cc(OCCO)c1 (single isomer, unassigned) [Compound 2A]" readout=CC50 reported_result=3.5
compound="COc1cc(NC(C(=O)c2c[nH]c3ccc(C(F)(F)F)cc23)c2ccc(F)cc2OC)cc(OCCO)c1 (racemic)" readout=CC50 reported_result=5.5

Next up:
Just so you know, measured CC50 for COc1cc(NC(C(=O)c2c[nH]c3c(C)cc(C(F)(F)F)cc23)c2ccc(F)cc2OC)cc(OCCO)c1 (racemic) came out at 6.1

###

Test system: DENV-2 strain 16681
Experiment: Tetravalent RT-qPCR assay, serotype 2
Format: cell-based
Conditions: Dengue virus, DENV2, 72 h; RT-qPCR serotype 2 16681, Protocol A, Vero cells, day 3
// reported EC50 per item
Record the value in pM, omitting the unit from your answer.

Just so you know, measured EC50 for COc1cc(NC(C(=O)c2c[nH]c3ccc(OC(F)(F)F)cc23)c2ccc(Cl)cc2OC)cc(OCCO)c1 (single isomer, unassigned) [Compound 13A] came out at 200

Just so you know, measured EC50 for COc1cc(NC(C(=O)c2c[nH]c3cc(F)c(OC(F)(F)F)cc23)c2ccc(F)cc2OC)cc(OCCO)c1 (single isomer, unassigned) came out at 550

Just so you know, measured EC50 for COc1cc(NC(C(=O)c2c[nH]c3cc(F)c(C(F)(F)F)cc23)c2ccc(F)cc2OC)cc(OCCO)c1 (single isomer, unassigned) came out at 460

Just so you know, measured EC50 for COc1cc(NC(C(=O)c2c[nH]c3c(C)cc(C(F)(F)F)cc23)c2ccc(Cl)cc2OC)cc(OCCO)c1 (single isomer, unassigned) [Compound 12A] came out at 220

Just so you know, measured EC50 for COc1cc(NC(C(=O)c2c[nH]c3c(C)cc(C(F)(F)F)cc23)c2ccc(F)cc2OC)cc(OCCO)c1 (single isomer, unassigned) came out at 360

Just so you know, measured EC50 for COc1cc(NC(C(=O)c2c[nH]c3ccc(C(F)(F)F)cc23)c2ccc(F)cc2OC)cc(OCCO)c1 (single isomer, unassigned) came out at 410

Just so you know, measured EC50 for COc1cc(NC(C(=O)c2c[nH]c3c(C)cc(OC(F)(F)F)cc23)c2ccc(Cl)cc2OC)cc(OCCO)c1 (single isomer, unassigned) [Compound 16A] came out at 150

Just so you know, measured EC50 for COc1cc(NC(C(=O)c2c[nH]c3ccc(OC(F)(F)F)cc23)c2ccc(F)cc2OC)cc(OCCO)c1 (single isomer, unassigned) came out at 360

Just so you know, measured EC50 for COc1cc(NC(C(=O)c2c[nH]c3cc(F)c(OC(F)(F)F)cc23)c2ccc(Cl)cc2OC)cc(OCCO)c1 (single isomer, unassigned) [Compound 15B] came out at 150

###

Experiment: Cytotoxicity in RT-qPCR assay (Cp of housekeeping gene β-actin)
Assay type: cell-based
Conditions: African green monkey, RT-qPCR serotype 3 H87, Protocol A
Experimental: The antiviral activity of the compounds of the invention was tested against DENV-1 strain TC974 #666 (NCPV), DENV-2 strain 16681, DENV-3 strain H87 (NCPV) and DENV-4 strain H241 (NCPV) in a RT-qPCR assay. Therefore, Vero cells were infected with either DENV-1, or -2, or -3, or -4 in the presence or absence of test compounds. […] In addition, CC50 values are determined based on the Cp values acquired for the housekeeping gene β-actin. […]
Readout: CC50 at 3 days

molecule="COc1cc(NC(C(=O)c2c[nH]c3c(C)cc(OC(F)(F)F)cc23)c2ccc(Cl)cc2OC)cc(OCCO)c1 (single isomer, unassigned) [Compound 16A]" readout="CC50 at 3 days" reported_result="> 2500 nM"
molecule="COc1cc(NC(C(=O)c2c[nH]c3ccc(C(F)(F)F)cc23)c2ccc(F)cc2OC)cc(OCCO)c1 (single isomer, unassigned) [Compound 1B]" readout="CC50 at 3 days" reported_result="3200 nM"
molecule="COc1cc(NC(C(=O)c2c[nH]c3ccc(OC(F)(F)F)cc23)c2ccc(Cl)cc2OC)cc(OCCO)c1 (single isomer, unassigned) [Compound 13A]" readout="CC50 at 3 days" reported_result="> 2500 nM"

Just so you know, measured CC50 at 3 days for COc1cc(NC(C(=O)c2c[nH]c3cc(OC)c(C(F)(F)F)cc23)c2ccc(F)cc2OC)cc(OCCO)c1 (single isomer, unassigned) [Compound 2A] came out at > 1900 nM

Just so you know, measured CC50 at 3 days for COc1cc(NC(C(=O)c2c[nH]c3cc(F)c(C(F)(F)F)cc23)c2ccc(F)cc2OC)cc(OCCO)c1 (single isomer, unassigned) [Compound 3A] came out at > 2500 nM

Just so you know, measured CC50 at 3 days for COc1cc(NC(C(=O)c2c[nH]c3c(C)cc(C(F)(F)F)cc23)c2ccc(Cl)cc2OC)cc(OCCO)c1 (single isomer, unassigned) [Compound 12A] came out at > 2500 nM

###

Assay: Cytotoxicity in RT-qPCR assay (Cp of housekeeping gene β-actin)
Type: cell-based
Settings: African green monkey, RT-qPCR serotype 4 H241, Protocol A
Readout: CC50 at 3 days (nM)
Record the value in nM, omitting the unit from your answer.

Known results for molecules:
molecule="COc1cc(NC(C(=O)c2c[nH]c3ccc(OC(F)(F)F)cc23)c2ccc(F)cc2OC)cc(OCCO)c1 (single isomer, unassigned) [Compound 5B]" reported_result=2400
molecule="COc1cc(NC(C(=O)c2c[nH]c3cc(F)c(C(F)(F)F)cc23)c2ccc(Cl)cc2OC)cc(OCCO)c1 (single isomer, unassigned) [Compound 11A]" reported_result=1900
molecule="COc1cc(NC(C(=O)c2c[nH]c3c(C)cc(OC(F)(F)F)cc23)c2ccc(F)cc2OC)cc(OCCO)c1 (single isomer, unassigned) [Compound 8A]" reported_result=2600
molecule="COc1cc(NC(C(=O)c2c[nH]c3cc(F)c(OC(F)(F)F)cc23)c2ccc(F)cc2OC)cc(OCCO)c1 (single isomer, unassigned) [Compound 7B]" reported_result=2100

Just so you know, measured CC50 at 3 days for COc1cc(NC(C(=O)c2c[nH]c3cc(OC)c(OC(F)(F)F)cc23)c2ccc(F)cc2OC)cc(OCCO)c1 (single isomer, unassigned) [Compound 6A] came out at 1500

Just so you know, measured CC50 at 3 days for COc1cc(NC(C(=O)c2c[nH]c3cc(OC)c(OC(F)(F)F)cc23)c2ccc(Cl)cc2OC)cc(OCCO)c1 (single isomer, unassigned) [Compound 14A] came out at 1600

###

// reported CC50 per item
Assay: Toxicity on the same plates (ATPlite cell viability)
Details: African green monkey, CC50, Vero cells, same plates as DENV-2 antiviral assay
Record the value in µM, omitting the unit from your answer.

compound="COc1cc(NC(C(=O)c2c[nH]c3cc(F)c(OC(F)(F)F)cc23)c2ccc(Cl)cc2OC)cc(OCCO)c1 (single isomer, unassigned) [Compound 15A]" unit_descriptor=µM reported_result=3.8
compound="COc1cc(NC(C(=O)c2c[nH]c3cc(F)c(C(F)(F)F)cc23)c2ccc(F)cc2OC)cc(OCCO)c1 (racemic) [Compound 3]" unit_descriptor=µM reported_result=3

Next up:
Just so you know, measured CC50 for COc1cc(NC(C(=O)c2c[nH]c3ccc(OC(F)(F)F)cc23)c2ccc(F)cc2OC)cc(OCCO)c1 (racemic) [Compound 5] came out at 4.5

###

System: DENV-1 strain TC974 #666
Experiment: Tetravalent RT-qPCR assay, serotype 1
Type: cell-based
Conditions: Dengue virus, DENV1, 72 h; RT-qPCR serotype 1 TC974#666, Protocol A, Vero cells, day 3
Rule: measured EC50 below 0.8 nM gets Yes; anything equal to or greater than 0.8 nM gets No.

Consider the worked cases shown below.
molecule="COc1cc(NC(C(=O)c2c[nH]c3c(C)cc(C(F)(F)F)cc23)c2ccc(F)cc2OC)cc(OCCO)c1 (single isomer, unassigned)" measured_on="DENV-1 strain TC974 #666" assigned_category=No
molecule="COc1cc(NC(C(=O)c2c[nH]c3ccc(OC(F)(F)F)cc23)c2ccc(F)cc2OC)cc(OCCO)c1 (single isomer, unassigned)" measured_on="DENV-1 strain TC974 #666" assigned_category=Yes
molecule="COc1cc(NC(C(=O)c2c[nH]c3ccc(OC(F)(F)F)cc23)c2ccc(Cl)cc2OC)cc(OCCO)c1 (single isomer, unassigned) [Compound 13A]" measured_on="DENV-1 strain TC974 #666" assigned_category=Yes

Is the reported EC50 for COc1cc(NC(C(=O)c2c[nH]c3c(C)cc(OC(F)(F)F)cc23)c2ccc(F)cc2OC)cc(OCCO)c1 (single isomer, unassigned) strictly below 0.8 nM?
Yes

Is the reported EC50 for COc1cc(NC(C(=O)c2c[nH]c3cc(F)c(OC(F)(F)F)cc23)c2ccc(Cl)cc2OC)cc(OCCO)c1 (single isomer, unassigned) [Compound 15B] strictly below 0.8 nM?
Yes

Is the reported EC50 for COc1cc(NC(C(=O)c2c[nH]c3cc(OC)c(C(F)(F)F)cc23)c2ccc(F)cc2OC)cc(OCCO)c1 (single isomer, unassigned) strictly below 0.8 nM?
No
